// provenance: patent US12344610B2

# System: HEK293 cells overexpressing APOL1 G2
# TEST_SUMMARY: APOL1 G2 HEK293 cell rescue assay (reversal of cell death caused by overexpression of APOL1)
# Assay type: cell-based
# CONDITION_CONTEXT: Homo sapiens, HEK293, HEK293 overexpressing APOL1 G2; geometric mean of at least 2 assay runs; † = single assay run
OBSERVABLE: pEC50
In textbook form, pEC50 equals minus log to base ten of the concentration in mol/L.

Incoming: Returns the measured pEC50 for the input compound. Input: [2H]C([2H])([2H])N1C(=O)C2(CCN(CCOc3cnc4c(c3)CCC(=O)N4CC(C)(C)O)CC2)c2cc(Cl)ccc21
Outgoing: 7.31

Incoming: # get_value(readout='pEC50', item= C[C@]1(O)C[C@@H](n2c(=O)cc(C(F)F)c3cc(OCCN4CCC5(CC4)C(=O)Nc4ccc(Cl)cc45)cnc32)C1 )
Outgoing: 7.44

Incoming: # get_value(readout='pEC50', item= CC(C)N1C(=O)Cc2cc(OCCN3CCC4(CC3)C(=O)Nc3ccc(Cl)cc34)ccc21 )
Outgoing: 7.30

Incoming: What value of measured pEC50 is listed for CS(=O)(=O)C1(c2ncc(OCCN3CCC4(CC3)C(=O)Nc3ccc(Cl)cc34)cn2)COC1 ?
Outgoing: 7.00

Incoming: # query: pEC50 of entry CS(=O)(=O)c1ccc(OCCN2CCC3(CC2)C(=O)Nc2ccc(Br)cc23)cc1
Outgoing: 7.44

Incoming: Given NC1CN(C(=O)c2ccc(OCCN3CCC4(CC3)C(=O)Nc3ccc(Cl)cc34)cc2F)C1 , state its recorded pEC50.
Outgoing: 7.35

Incoming: I have this compound here, O=C1OC2(COC2)c2ccc(OCCN3CCC4(CC3)C(=O)Nc3ccc(Cl)cc34)cc21 , and I need its recorded pEC50.
Outgoing: 6.79

Incoming: May I ask what pEC50 has been recorded for Cc1ccc2c(c1)C1(CCN(CCOc3ccc(S(C)(=O)=O)cc3)CC1)C(=O)N2 ?
Outgoing: 6.97

Incoming: Quick one: pEC50 of CC1(O)CC(c2ncc(OCCN3CCC4(CC3)C(=O)Nc3ccc(Cl)cc34)cn2)C1 (stereo not drawn) ?
Outgoing: 7.27

Incoming: Suppose we examine the compound C[C@@H](COc1ccc(S(C)(=O)=O)c(C(F)F)c1)N1CCC2(CC1)C(=O)Nc1ccc(Cl)cc12 (single isomer, unassigned) ; what pEC50 value has been reported?
Outgoing: 7.20

Incoming: Which pEC50 value belongs to C[C@]1(O)C[C@@H](n2cc3cc(OCCN4CCC5(CC4)C(=O)Nc4ccc(Cl)cc45)cc(C(F)(F)F)c3n2)C1 ?
Outgoing: 7.73

Incoming: If you can, please state the reported pEC50 value of CS(=O)(=O)c1ccc(OCCN2CCC3(CC2)C(=O)N(CCO)c2ccc(Cl)cc23)cc1 .
Outgoing: 6.65

Incoming: Need pEC50 of CN=S(C)(=O)c1ccc(OCCN2CCC3(CC2)C(=O)Nc2ccc(Cl)cc23)cc1 (single isomer, unassigned) [Compound 148] , thanks.
Outgoing: 6.97

Incoming: Reported pEC50, compound N#Cc1ccc2c(c1)C1(CCN(CCOc3ccc4c(c3)CCC(=O)N4CC(F)F)CC1)C(=O)N2 : ____
Outgoing: 7.39

---

Would you mind telling me the reported EC50 of each entry?
# System: Trypanosoma brucei Lister 427 VSG221 with APOL1 G1 recombinant protein
# TEST_SUMMARY: APOL1 G1 trypanosome cell rescue assay (Example B5)
# Type: cell-based
# CONDITION_CONTEXT: Trypanosoma brucei, 20 h, read-out: APOL1 G1 Trypanosome Rescue EC50, Trypanosoma brucei Lister 427 VSG221 with APOL1 G1 recombinant protein, 20 hours, CellTiter-Glo; geometric mean of at least 2 assay runs; † = single assay run
# Excerpt: APOL1 G0/G1/G2 viability assay for measurement of cytotoxicity reversal by compound in trypanosomes (APOL1 G0/G1/G2 trypanosome cell rescue assay). APOL1 protein expression and purification. […] Assay Setup. […] Assay ready plates were generated with duplicate 11-point compound dilution series that consisted of 2-fold stepwise dilutions (0.4% DMSO final). […] Trypanosomes were counted using a hemacytometer and diluted in modified HMI-9 media to a concentration of 1.25×10^4 cell/mL. […]
Lab book: enter the figure in nM, no units written.

Incoming: Need EC50, item CN1C(=O)C2(CCN(CCOc3cc(F)c(C(=O)N4CCS(=O)(=O)CC4)c(F)c3)CC2)c2cc(C#N)ccc21
Outgoing: 397

Incoming: Quick one: EC50 of CN(c1ccc(OCCN2CCC3(CC2)C(=O)Nc2ccc(C#N)cc23)cc1)S(C)(=O)=O ?
Outgoing: 578

Incoming: For C[C@]1(O)C[C@@H](n2c(=O)cnc3cc(OCCN4CCC5(CC4)C(=O)Nc4ccc(Cl)cc45)cnc32)C1 , what is its reported EC50?
Outgoing: 75.2

Incoming: # EC50 lookup, item Cc1n[nH]cc1-c1ccc(OCCN2CCC3(CC2)C(=O)Nc2ccc(Cl)cc23)cc1
Outgoing: 151
